# experimental-system: Recombinant Homo sapiens AChE (Homo sapiens, UniProt P22303)
# Construct: made in house
# Sequence (P22303 32-614): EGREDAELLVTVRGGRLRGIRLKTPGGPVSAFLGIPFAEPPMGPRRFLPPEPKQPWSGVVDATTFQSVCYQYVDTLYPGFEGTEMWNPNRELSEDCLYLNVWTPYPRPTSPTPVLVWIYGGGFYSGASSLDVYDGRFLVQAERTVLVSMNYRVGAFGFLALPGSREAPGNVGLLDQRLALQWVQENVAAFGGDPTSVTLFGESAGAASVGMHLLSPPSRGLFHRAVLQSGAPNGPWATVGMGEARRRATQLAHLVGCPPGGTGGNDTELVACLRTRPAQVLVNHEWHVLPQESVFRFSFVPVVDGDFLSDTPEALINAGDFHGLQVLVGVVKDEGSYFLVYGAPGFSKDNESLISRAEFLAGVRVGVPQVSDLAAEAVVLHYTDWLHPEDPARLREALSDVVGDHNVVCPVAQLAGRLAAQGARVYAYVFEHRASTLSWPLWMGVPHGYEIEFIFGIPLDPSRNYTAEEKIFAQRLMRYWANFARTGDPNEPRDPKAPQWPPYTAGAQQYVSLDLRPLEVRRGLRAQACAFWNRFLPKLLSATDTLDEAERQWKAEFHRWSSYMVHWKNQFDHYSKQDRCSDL
# assay-text: biochemical
# Type: biochemical
# experimental-conditions: test sets Set1 and Set2 (Table S15), synthesized and biologically evaluated here
IC50 overview

| smiles-data | result-value |
| --- | --- |
| O=C(CCc1ccc(Cl)cc1Cl)Nc1ccc(CN2CCCCC2)cc1 | 0.7 µM |

Problem: Answer with the recorded IC50 of "O=C(COc1ccccc1Cl)Nc1ccc(CN2CCCCC2)cc1" only.
Solution: 0.6 µM

Problem: Kindly indicate its recorded IC50. Item: "Cc1ccc(C(=O)NCCCN(C)C)cc1[N+](=O)[O-]"
Solution: 19 µM

Problem: Consider the compound "O=C(NCC[n+]1ccsc1)c1cc2cc([N+](=O)[O-])ccc2s1" . State its measured IC50.
Solution: 2.6 µM

Problem: Return IC50 (reported value) for this compound: "CCN(CC)Cc1ccc(NC(=O)COc2cc(C)ccc2C)cc1"
Solution: 8.1 µM

Problem: Write down IC50 measured for item "Cc1cc(C)c(OCC(=O)Nc2ccc(CN3CCCCC3)cc2)c(Cl)c1"
Solution: 1.3 µM

---

# experimental-system: Recombinant Homo sapiens AChE (Homo sapiens)
# Construct: made in house
# assay-text: biochemical
# Assay type: biochemical
# experimental-conditions: test sets Set1 and Set2 (Table S15), synthesized and biologically evaluated here
Below, each of the compounds is paired with its reported log10(IC50) value.
Please keep in mind that the values are log10 of IC50 expressed in µM.

| smiles-data | log10(IC50) |
| --- | --- |
| Cc1ccc(C(=O)NCC[n+]2ccccc2)cc1[N+](=O)[O-] | 1.00 |
| O=C(COc1ccc(Cl)cc1)Nc1ccc(CN2CCCCC2)cc1 | -0.22 |
| O=C(COc1ccccc1)Nc1ccc(CN2CCCCC2)cc1 | 0.11 |
| Cc1ccc(C(=O)NCCC[n+]2ccccc2)cc1[N+](=O)[O-] | 0.69 |

In the following, a different compound is considered.
Problem: Give the value of log10(IC50) reported for the following: "O=[N+]([O-])c1ccccc1S(=O)(=O)NCC[n+]1ccsc1"
Solution: 1.08

---

# experimental-system: Recombinant Homo sapiens AChE (Homo sapiens, UniProt P22303)
# Construct: made in house
# assay-text: biochemical
# Format: biochemical
# experimental-conditions: training set; triplicates; pH 8.0
pIC50: −log10 of the molar value.
Response key: yes means pIC50 >= 4; no means pIC50 < 4.

| smiles-data | group |
| --- | --- |
| Cc1ccc(S(=O)(=O)NCCN(C)C)cc1[N+](=O)[O-] | yes |
| O=C(NCCN1CCOCC1)c1ccc(-c2ccc(Cl)cc2)o1 | no |

Problem: Evaluate "O=C(Cc1ccc(C(F)(F)F)cc1)NCCN1CCCCC1" : pIC50 at minimum 4?
Solution: no

---

Measured IC50 accompanies every entry in the list below.
# experimental-system: Recombinant Homo sapiens AChE (Homo sapiens)
# Construct: made in house
# assay-text: biochemical
# Assay type: biochemical
# experimental-conditions: training set; triplicates; pH 8.0
# Description: The training set of 18 compounds was experimentally evaluated for their ability to inhibit the enzymatic activity of AChE (Table 1 and Online Resource 1 for experimental details). Reco mbinant Homo sapiens AChE was expressed according to previously described methods [ 6,7]. The enzymatic activit y wa s measured usi ng t he Ell ma n assa y [ 8] adapted to a 96-well for mat. […]
Unit µM implied. Number only.

Guide cases for IC50, answers given:
| molecule | units | IC50 |
| --- | --- | --- |
| Cc1ccc(S(=O)(=O)NCCCN2CCCCC2)cc1[N+](=O)[O-] [compound 5] | µM | 101 |
| O=S(=O)(Cc1ccc(Cl)cc1)NCCCN1CCCCC1 [compound 2] | µM | 445 |

Problem: Tell me its IC50 given O=S(=O)(Cc1ccc(C(F)(F)F)cc1)NCCCN1CCNCC1 [compound 17] as the entry.
Solution: 4200

---

# experimental-system: Recombinant Homo sapiens AChE (Homo sapiens, UniProt P22303)
# Construct: made in house
# assay-text: biochemical
# Assay type: biochemical
# experimental-conditions: training set; triplicates; pH 8.0
# pIC50 annotations
Here pIC50 is given on a logarithmic scale as minus log10 of the concentration in mol/L.

| smiles-data | result-value |
| --- | --- |
| O=C(Cc1ccc(Cl)cc1)NCC[n+]1ccccc1 | 4.60 |

Problem: Fill in pIC50 for record "COc1ccc(N2Cc3ccccc3C2=O)cc1S(=O)(=O)NCCN1CCOCC1"
Solution: 2.37

Problem: Give the reported value of pIC50 for this record: "COc1ccc(N2Cc3ccccc3C2=O)cc1S(=O)(=O)NCCCN(C)C"
Solution: 4.92

Problem: Consider the compound "CCN(CC)CCCNC(=O)c1ccc(C)c([N+](=O)[O-])c1" . State its measured pIC50.
Solution: 4.89

---

# experimental-system: Recombinant Homo sapiens AChE (Homo sapiens)
# Construct: made in house
# assay-text: biochemical
# Assay type: biochemical
# experimental-conditions: training set; triplicates; pH 8.0
parameter: IC50

| smiles-data | IC50 |
| --- | --- |
| O=C(Cc1ccc(Cl)cc1)NCCCN1CCOCC1 | > 1000 µM |
| O=S(=O)(Cc1ccc(C(F)(F)F)cc1)NCCC[n+]1ccccc1 | 22.2 µM |
| CN(C)CCCNC(=O)c1sc2ccccc2c1Cl | 67.7 µM |

Problem: Return IC50 (reported value) for this compound: "O=C(NCCCN1CCNCC1)c1ccc(-c2ccc(Cl)cc2)o1"
Solution: 136 µM

Problem: Determine from records and report IC50 for "CCN(CC)CCNS(=O)(=O)Cc1ccc(Cl)cc1"
Solution: 13 µM

Problem: For the compound "O=C(NCCC[n+]1ccccc1)c1sc2ccccc2c1Cl" , give its reported IC50.
Solution: 6.6 µM

// provenance: paper PMC4330465
